biological target: SIRT1 (Homo sapiens); assay: Mass spectrometry based assay to identify modulators of SIRT1 activity (deacetylation of p53-based acetylated peptide substrate); type: biochemical
Exercise: state measured EC1.5 (concentration giving 1.5-fold activation) for each of the compounds provided.

Input line: Consider the compound `CC1(C)CCN(C(=O)Nc2ccncn2)c2nc(-c3cccc(C(F)(F)F)c3)ccc21` and give its measured EC1.5 (concentration giving 1.5-fold activation).
Output line: < 1 µM

Input line: Moving on to `CC1(C)CCN(C(=O)Nc2cncnc2)c2nc(-c3cccc(C(F)(F)F)c3)ccc21`
Output line: 1 to 25 µM

Input line: Do the same for O=C(Nc1cncc(OCC(O)CO)n1)N1CCCOc2ccc(-c3cccc(Cl)c3)nc21 (centres unmarked) please
Output line: < 1 µM

Input line: Here is the next compound: `Cc1cccc(NC(=O)N2CCCC(F)(F)c3ccc(-c4cccc(Cl)c4)nc32)n1`
Output line: > 25 µM

Input line: Next compound up: `O=C(Nc1ccncc1)N1CCCOc2ccc(-c3cccc(Cl)c3)nc21`
Output line: 1 to 25 µM

Input line: Same thing, different compound: `O=C(Nc1cccnc1)N1CCCc2ccc(-c3cccnc3)nc21`
Output line: 1 to 25 µM

Input line: What would you report for `CC1(C)CCN(C(=O)Nc2ccncc2F)c2nc(-c3cccc(Cl)c3)ccc2C1=O` ?
Output line: 1 to 25 µM

Input line: Repeat for the following compound: `Cc1cc(C)nc(NC(=O)N2CCOc3cnc(-c4cccc(C(F)(F)F)c4)nc32)c1`
Output line: > 25 µM

* * *

Field: Emax. Provide a value for each of the compounds that follow.
target: SIRT1 (Homo sapiens, UniProt Q96EB6); assay: Mass spectrometry based assay to identify modulators of SIRT1 activity (deacetylation of p53-based acetylated peptide substrate); assay type: biochemical; conditions: 25 min, SIRT1 activation, read-out: % FOLD ACT. (percent maximum fold activation)
Sequence (Q96EB6 whole entry): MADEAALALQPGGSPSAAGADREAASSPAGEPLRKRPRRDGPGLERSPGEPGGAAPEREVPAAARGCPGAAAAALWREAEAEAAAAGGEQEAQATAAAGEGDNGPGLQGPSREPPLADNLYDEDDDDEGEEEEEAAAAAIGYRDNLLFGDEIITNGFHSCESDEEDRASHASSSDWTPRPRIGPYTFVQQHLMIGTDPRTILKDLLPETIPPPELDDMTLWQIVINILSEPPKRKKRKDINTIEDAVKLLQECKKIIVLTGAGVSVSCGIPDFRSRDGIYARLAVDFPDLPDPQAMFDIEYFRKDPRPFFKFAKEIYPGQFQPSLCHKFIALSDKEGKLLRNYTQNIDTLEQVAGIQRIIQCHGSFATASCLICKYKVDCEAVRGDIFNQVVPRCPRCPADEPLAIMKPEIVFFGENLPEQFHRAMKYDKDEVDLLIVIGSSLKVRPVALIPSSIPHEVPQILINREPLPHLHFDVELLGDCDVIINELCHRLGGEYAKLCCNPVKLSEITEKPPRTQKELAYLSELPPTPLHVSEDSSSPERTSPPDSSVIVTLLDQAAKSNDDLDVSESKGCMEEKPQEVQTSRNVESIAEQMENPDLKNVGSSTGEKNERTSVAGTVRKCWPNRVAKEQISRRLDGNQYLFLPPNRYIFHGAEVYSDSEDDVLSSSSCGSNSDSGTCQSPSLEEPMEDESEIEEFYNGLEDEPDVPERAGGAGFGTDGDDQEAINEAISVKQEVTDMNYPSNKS

Input line: Sample O=C(Nc1ccccn1)N1CCCOc2ccc(-c3cccc(Cl)c3)nc21 [Compound 761] — what was its Emax?
Output line: > 200%

Input line: Next entry: CN(C)Cc1cccc(-c2ccc3c(n2)N(C(=O)Nc2cccnc2)CC(C)(C)O3)c1 [Compound 677]
Output line: > 200%

Input line: What do you get for O=C(Nc1ccncc1)N1CCOc2ccc(-c3ccccc3F)nc21 [Compound 544] ?
Output line: > 200%

Input line: Moving on to Cc1cc(-c2cccc(C(F)(F)F)c2)nc2c1OCCN2C(=O)Nc1ccncn1 [Compound 669]
Output line: > 200%

Input line: Continue with CCN1CCCN(C(=O)Nc2cccc(C)n2)c2nc(-c3cccc(Cl)c3)ccc21 [Compound 797]
Output line: ≤ 200%

Input line: Further, for Cc1cc(OCC(O)CO)nc(NC(=O)N2CCCOc3ccc(-c4cccc(Cl)c4)nc32)n1 (centres unmarked) [Compound 859] ?
Output line: > 200%

Input line: Item: CN1CCN(C(=O)Nc2ccnc(N3CCC3)c2)c2nc(-c3cccc(C(F)(F)F)c3)ccc21 [Compound 538]
Output line: > 200%

Input line: Same question, CN(C)c1nc(-c2cccc(F)c2)nc2c1OCCN2C(=O)Nc1ccncn1 [Compound 757] this time
Output line: ≤ 200%

* * *

Target: UniProtKB Q96EB6
Experiment: Mass spectrometry based assay to identify modulators of SIRT1 activity (deacetylation of p53-based acetylated peptide substrate)
Type: biochemical
Details: SIRT1 activation
From the text: A mass spectrometry based assay was used to identify modulators of SIRT1 activity. The mass spectrometry based assay utilizes a peptide having 20 amino acid residues as follows: Ac-EE-K(biotin)-GQSTSSHSK(Ac)NleSTEG-K(5TMR)-EE-NH2 (SEQ ID NO: 1) wherein K(Ac) is an acetylated lysine residue and Nle is a norleucine. The peptide is labeled with the fluorophore 5TMR (excitation 540 nm/emission 580 nm) at the C-terminus. The sequence of the peptide substrate is based on p53 with several modifications. […]
quantity_kind: EC1.5

Sample answers from the record:
molecule	quantity_kind	result
Cc1cc(C)nc(NC(=O)N2CCCc3ccc(-c4cccc(C(F)(F)F)c4)nc32)c1	EC1.5	A (EC1.5<1.0 μM)
O=C(Nc1c(F)c(F)c(F)c(F)c1F)N1CCCOc2ccc(-c3cccc(C(F)(F)F)c3)nc21	EC1.5	C (EC1.5>25 μM)
O=C(Nc1cccnc1)N1CCCc2ccc(-c3cccc(F)c3)nc21	EC1.5	B (EC1.5 1-25 μM)
Cc1cc(-c2cccc(Cl)c2)nc2c1OCCN2C(=O)Nc1ccnc(N2CCC2)c1	EC1.5	A (EC1.5<1.0 μM)
O=C(Nc1ccc(CN2CCOCC2)nc1)N1CCOc2ccc(-c3cccc(C(F)(F)F)c3)nc21	EC1.5	A (EC1.5<1.0 μM)

Input line: Find the recorded EC1.5 belonging to `Cc1cc(NC(=O)N2CCCc3ccc(-c4cccc(C(F)(F)F)c4)nc32)cc(C)n1` and report it.
Output line: A (EC1.5<1.0 μM)

Input line: Next: `O=C(Nc1ccccn1)N1CCCc2ccc(-c3cccc(C(F)(F)F)c3)nc21`
Output line: A (EC1.5<1.0 μM)

Input line: Also `Cc1cncc(NC(=O)N2CC(C)(C)Oc3ccc(-c4cccc(N5CCCC5)c4)nc32)c1` ?
Output line: A (EC1.5<1.0 μM)

Input line: Moving on to the next molecule: O=C(c1ccnc(OCC(O)CO)c1)N1CCOc2ccc(-c3cccc(C(F)(F)F)c3)nc21 (stereo not drawn)
Output line: B (EC1.5 1-25 μM)

Input line: Could you do the same for `O=C(Nc1cccc(OC[C@@H](O)CO)n1)N1CCOc2ccc(-c3cccc(C(F)(F)F)c3)nc21` , please?
Output line: A (EC1.5<1.0 μM)

Input line: Again, but for `Cc1csc(NC(=O)N2CCOc3c(C)cc(-c4cccc(C(F)(F)F)c4)nc32)n1`
Output line: A (EC1.5<1.0 μM)

Input line: // query: `CN1C(=O)CN(C(=O)Nc2cccnn2)c2nc(-c3cccc(C(F)(F)F)c3)ccc21`
Output line: C (EC1.5>25 μM)

Input line: Next record, please: `O=C(Nc1ccnc(N2CCC2)c1)N1CCCOc2ccc(-c3cccc(Cl)c3)nc21`
Output line: A (EC1.5<1.0 μM)

Input line: Next record, please: `Cc1cncc(NC(=O)N2CCCOc3ccc(-c4cccc(C(F)(F)F)c4)nc32)c1`
Output line: B (EC1.5 1-25 μM)

Input line: Now this one: `O=C(Nc1ccncc1)N1CCOc2ccc(-c3cccc(N4CCOCC4)c3)nc21`
Output line: A (EC1.5<1.0 μM)

Input line: Now this one: `Cc1csc(NC(=O)N2CCN(C)c3ccc(-c4cccc(C(F)(F)F)c4)nc32)n1`
Output line: A (EC1.5<1.0 μM)

Input line: Further, for `O=C(Nc1ccnc(N2CCC2)c1)N1CCCOc2ccc(-c3cccc(C(F)(F)F)c3)nc21` ?
Output line: A (EC1.5<1.0 μM)

Input line: How about this molecule: `O=C(Nc1ccncc1)N1CCOc2ccc(-c3cccc(C(F)(F)F)c3)nc21`
Output line: A (EC1.5<1.0 μM)

Input line: Next: `Cc1cc(NC(=O)N2CCCOc3ccc(-c4cccc(N5CCCC5)c4)nc32)ccn1`
Output line: A (EC1.5<1.0 μM)

Input line: Lookup `Cc1csc(NC(=O)N2CCCOc3ccc(-c4cccc(C(F)(F)F)c4)nc32)n1`
Output line: A (EC1.5<1.0 μM)

Input line: And then `O=C(Nc1ccncc1)N1CCOc2ccc(-c3cccc(Cl)c3)nc21` , what is it?
Output line: A (EC1.5<1.0 μM)

Input line: Can you handle `Cc1cc(NC(=O)N2CCOc3ccc(-c4cnn(C)c4C)nc32)cc(C)n1` next?
Output line: B (EC1.5 1-25 μM)

Input line: Would you mind doing `CC1(C)CN(C(=O)Nc2ccncc2)c2nc(-c3cccc(F)c3)ccc2O1` as well?
Output line: B (EC1.5 1-25 μM)

Input line: Repeat for the following molecule: `O=C(Nc1cncc(F)c1)N1CCCc2ccc(-c3cccc(C(F)(F)F)c3)nc21`
Output line: A (EC1.5<1.0 μM)
